Measured inhibition values are reported for all entries that follow.
# Tested On: Virion infectivity factor (Human immunodeficiency virus type 1 group M subtype B (isolate BH10)) + Virion infectivity factor (Human immunodeficiency virus type 1 group M subtype B (isolate BRU/LAI)) + Virion infectivity factor (Human immunodeficiency virus type 1 group M subtype B (isolate PCV12)) + Virion infectivity factor (Human immunodeficiency virus type 1 group M subtype B (isolate HXB2)) + DNA dC->dU-editing enzyme APOBEC-3G (Homo sapiens) (UniProt P69720+P69721+P69722+P69723+Q9HC16)
# Measurement Description: inhibitors of Vif binding to APOBEC3G peptide, primary screen, biochemical, TR-FRET, GST-Vif 1-94, biotin-A3G peptide, dose response retest (AID 1117319);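 note: Vif residues 1-94 fused to GST binding biotinylated APOBEC3G peptide 110-148; 0% = full assay without inhibitor and 100% = GST in place of GST-Vif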
# Details: hits give high values
Among all 260,000 compounds or so, about 1,500 (0.58%) were called active. Roughly 5% stayed inconclusive and do not appear here. A selection follows. Entries with a potency or affinity are not part of this list.

Compound	inhibition, %
NC(=O)NC(=O)COC(=O)c1ccc(Cl)c(S(=O)(=O)N(Cc2ccccc2)c2ccc(Cl)cc2)c1	-3.29
C=CCOC(=O)C1=C(C)N=C2SCCC(=O)N2C1c1ccc(OC(=O)c2ccco2)cc1 (configuration not stated)	-4.13
COc1cc(NS(=O)(=O)c2ccc(NC(=O)/C=C/c3ccc([N+](=O)[O-])cc3)cc2)ncn1	7.89
O=C(N=C1SC2CS(=O)(=O)CC2N1Cc1ccccc1)C1CC1 (configuration not stated)	-2.49
O=C(c1ccc(Br)o1)N1CCN(C/C=C/c2ccccc2)CC1	2.12
CSCCC(NS(=O)(=O)c1ccc(C)cc1)C(=O)NCC(C)(C)N1CCOCC1 (configuration not stated)	26.5
CCNC(=O)CSc1nnc(-c2cccc(S(=O)(=O)N3CCOCC3)c2)o1	4.88
COCCOc1ccc(C(F)(F)F)cc1N	16.5
CCc1c(C#N)c(SCCC(=O)Nc2cccc(OC)c2)nc2c1C(=O)CC(C)(C)C2	-3.29
COC(=O)c1cc(C)ccc1/C=C1/Cc2c(C)cc(C)cc2C1=O	-4.06
O=S(=O)(CC=CCS(=O)(=O)c1ccccc1)c1ccccc1	-17
Cc1ccc(S(=O)(=O)Nc2ccccc2-c2ccccc2)cc1	-0.15
CN1CCN(C2=C(NS(=O)(=O)c3ccccc3)C(=O)c3ccccc3C2=O)CC1	-3.21
CC[n+]1c(/C=C2\C=C(C)CC(C)C2)sc2ccccc21 (configuration not stated)	26
CNC(=O)C[C@H]1C(=O)N(C2CCCCC2)C[C@@H]1C	8.77
CC[n+]1c(/C=C2\C=C(C)CC(C)(C)C2)sc2ccccc21	25.8
Cc1cc(C)c(NC(=O)c2ccc(S(=O)(=O)N3CCOCC3)cc2)c(C)c1	-5.2
CC(C)c1ccc(-c2nc(N3CCCCC3)[nH]c(=O)c2C#N)cc1	-2.18
CC(C)NC1=C(Cl)C(=O)c2ccccc2C1=O	2.61
Cc1c(C(=O)N2CCCCCC2)oc2ccccc12	30.7
CN1CCN(C2=C(Cl)C(=O)N(Cc3ccccc3)C2=O)CC1	14.1
COc1ccc(-c2nnn(CC(=O)c3ccc4c(c3)OCCO4)n2)cc1OC	21.5

---

# Tested On: Virion infectivity factor (Human immunodeficiency virus type 1 group M subtype B (isolate BH10)) + Virion infectivity factor (Human immunodeficiency virus type 1 group M subtype B (isolate BRU/LAI)) + Virion infectivity factor (Human immunodeficiency virus type 1 group M subtype B (isolate PCV12)) + Virion infectivity factor (Human immunodeficiency virus type 1 group M subtype B (isolate HXB2)) + DNA dC->dU-editing enzyme APOBEC-3G (Homo sapiens) (UniProt P69720+P69721+P69722+P69723+Q9HC16)
# Measurement Description: inhibitors of Vif binding to APOBEC3G peptide, primary screen, biochemical, TR-FRET, GST-Vif 1-94, biotin-A3G peptide, dose response retest (AID 1117319);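 note: Vif residues 1-94 fused to GST binding biotinylated APOBEC3G peptide 110-148; 0% = full assay without inhibitor and 100% = GST in place of GST-Vif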
# Details: hits give high values
In all, about 260,000 compounds went through this assay and about 1,500 (0.58%) were called active. Roughly 5% stayed inconclusive and do not appear here. A selection follows. Potency and affinity values are given separately.
Measured inhibition of individual entries

Molecule	inhibition [%]
C=CCn1c(C)c(C(C)=O)c(N2CCOCC2)nc1=S	5.16
C=CCn1c(SCC(=O)Nc2cc(C)on2)nc2sc(C)c(C)c2c1=O	-2.76
COc1ccc(CN(CC(=O)NCc2ccc(F)cc2)C(=O)c2ccco2)cc1	-3.39
CCOC(=O)C(C(=O)NCc1ccc(F)cc1)c1ncc(C(F)(F)F)cc1Cl (stereo unspecified)	5.68
COc1ccccc1C=CC(=O)C=Cc1ccccc1OC	7.01
C=C1[C@@H](C)C2[C@H](Cc3ccccc3)NC(=O)[C@]23OC(=O)CC[C@H](O)CCC[C@H](C)C/C=C/[C@H]3[C@@H]1O (stereo partly specified)	6.17
COc1cccc(=O)c2c(C)n(-c3cc(C)cc(C)c3)c(C)c12	21.8
COc1ccc(/C=C/C(=O)c2ccc(OC)cc2OC)cc1	-1.1
COc1ccccc1/C=C/C(=O)c1ccccc1	3.38
O=C(O)CNC(=O)CCn1nnc2ccccc2c1=O	-2.36
O=C1c2cccnc2C(Nc2ccccc2Br)N1Cc1ccco1 (stereo unspecified)	9.8
